Origin of values: patent US12185723B2

# System: Avena fatua
# method_notes: Post-emergence herbicidal action against AVEFA
# Type: in vivo
# condition_context: 20 g a.i./ha, visual rating about 3 weeks after treatment
Kindly state Herbicidal action against [%] AVEFA for each of the entries shown.
All answers are understood in %, so give the number only.

Param readout= Herbicidal action against [%] AVEFA; system= Avena fatua; entry= CSCCOC(=O)C1=CC(NC(=O)C2(C)CC(c3cc(F)cc(F)c3)=NO2)CC1 (stereo not shown) ; returns value. 100

# value lookup — system Avena fatua, readout Herbicidal action against [%] AVEFA, item COC1(C(=O)NC2C=CC(C(=O)OCCSC(=O)N(C)C)C2)CC(c2cc(F)cc(F)c2)=NO1 (stereo not shown) 90

Test system Avena fatua; read-out Herbicidal action against [%] AVEFA; what value for COC(=O)CSCCOC(=O)C1C=CC(NC(=O)C2(C)CC(c3cc(F)cc(F)c3)=NO2)C1 (stereo not shown) ? 90

Reported Herbicidal action against [%] AVEFA for Avena fatua, given CSCCOC(=O)C1C=CC(NC(=O)C2(CF)CC(c3cc(F)cc(C#N)c3)=NO2)C1 (stereo not shown) ? 80

----------
Would you kindly list Herbicidal action against [%] LOLRI for each of these compounds?
# Test system: Lolium rigidum
# method_notes: Post-emergence herbicidal action against LOLRI
# Type: in vivo
# condition_context: 20 g a.i./ha, visual rating about 3 weeks after treatment
Unit % implied. Number only.

Can you look up the measured Herbicidal action against [%] LOLRI of CSCCOC(=O)C1C=CC(NC(=O)C2(C)CC(c3cc(C#N)cc(C#N)c3)=NO2)C1 (mixture of isomers) for me? 90

Which measured Herbicidal action against [%] LOLRI value corresponds to COC1(C(=O)NC2C=CC(C(=O)OCCSC(=O)N(C)C)C2)CC(c2cc(F)cc(F)c2)=NO1 (stereo not shown) ? 90

Value lookup for Herbicidal action against [%] LOLRI; key = CC1(C(=O)NC2C=CC(C(=O)OCCS(C)(=O)=O)C2)CC(c2cc(F)cc(F)c2)=NO1 (stereo not shown) 90

Could you tell me which Herbicidal action against [%] LOLRI is on file for CCS(=O)(=O)CCOC(=O)C1C=CC(NC(=O)C2(C)CC(c3cc(F)cc(F)c3)=NO2)C1 (stereo not shown) ? 100

----------
# Tested on: Pharbitis purpurea
# method_notes: Post-emergence herbicidal action against PHBPU
# Assay type: in vivo
# condition_context: 80 g a.i./ha
readout_label: Herbicidal action against [%] PHBPU
For clarity, give the value followed by its unit.

Which Herbicidal action against [%] PHBPU value is on record for CSCCOC(=O)C1C=CC(NC(=O)C2(C)CC(c3cc(F)cc(Cl)c3)=NO2)C1 (stereo not shown) ? 80%

Please give the measured Herbicidal action against [%] PHBPU for this molecule: CSCCOC(=O)C1C=CC(NC(=O)C2(CCl)CC(c3cc(F)cc(F)c3)=NO2)C1 (stereo not shown) 90%

Recorded Herbicidal action against [%] PHBPU for CSCCOC(=O)C1C=CC(NC(=O)C2(C(F)(F)F)CC(c3cc(F)cc(C#N)c3)=NO2)C1 (mixture of isomers) [Example I-38] , please? 90%

Reported Herbicidal action against [%] PHBPU, molecule COC1(C(=O)NC2C=CC(C(=O)OCCSC)C2)CC(c2cccc(F)c2)=NO1 (mixture of isomers) : ____ 80%

Need Herbicidal action against [%] PHBPU, item CSCCOC(=O)C1C=CC(NC(=O)C2(C(F)(F)F)CC(c3cccc(C#N)c3)=NO2)C1 (mixture of isomers) 80%

Would you mind telling me what Herbicidal action against [%] PHBPU value was observed for CSCCOC(=O)C1C=CC(NC(=O)C2(C)CC(c3cccc(F)c3)=NO2)C1 (stereo not shown) ? 90%

Given CSCCOC(=O)C1=CC(NC(=O)C2(C)CC(c3cc(F)cc(F)c3)=NO2)CC1 (stereo not shown) , state its recorded Herbicidal action against [%] PHBPU. 80%

----------
# Test system: Abutilon theophrasti
# method_notes: Post-emergence herbicidal action against ABUTH
# Format: in vivo
# condition_context: 20 g a.i./ha, visual rating about 3 weeks after treatment
# Experimental: Post-Emergence Herbicidal Action Against Harmful Plants and Crop Plant Compatibility Seeds of monocotyledonous and dicotyledonous weeds and crop plants are placed in sandy loam in plastic or wood-fibre pots, covered with soil and cultivated in a greenhouse under controlled growth conditions. 2 to 3 weeks after sowing, the test plants are treated at the one-leaf stage. […]
readout_label: Herbicidal action against [%] ABUTH

Requested read-out: Herbicidal action against [%] ABUTH. Entry: CSCCOC(=O)C1C=CC(NC(=O)C2(C(F)(F)F)CC(c3cc(F)cc(F)c3)=NO2)C1 (centres unmarked) [Example I-17] 80%

Returns the measured Herbicidal action against [%] ABUTH for the input compound. Input: CC(C)SCCOC(=O)C1C=CC(NC(=O)C2(C)CC(c3cc(F)cc(F)c3)=NO2)C1 (centres unmarked) [Example I-10] 90%

# input compound: CC(C)CSCCOC(=O)C1C=CC(NC(=O)C2(C)CC(c3cc(F)cc(F)c3)=NO2)C1 (centres unmarked) [Example I-08] ; wanted: its Herbicidal action against [%] ABUTH 90%

# Herbicidal action against [%] ABUTH lookup, item C=CCSCCOC(=O)C1C=CC(NC(=O)C2(OC)CC(c3cc(F)cc(F)c3)=NO2)C1 (centres unmarked) [Example I-26] 80%

Herbicidal action against [%] ABUTH for CCS(=O)(=O)CCOC(=O)C1C=CC(NC(=O)C2(C)CC(c3cc(F)cc(F)c3)=NO2)C1 (centres unmarked) [Example I-01] ? 90%

I am curious: what Herbicidal action against [%] ABUTH value has been reported for CSCCOC(=O)C1C=CC(NC(=O)C2(C)CC(c3cc(F)cc(F)c3)=NO2)C1 (centres unmarked) [Example I-06] ? 80%

GET /values?readout=Herbicidal action against [%] ABUTH&item= CC1(C(=O)NC2C=CC(C(=O)OCCSCc3ccc(F)cc3)C2)CC(c2cc(F)cc(F)c2)=NO1 (centres unmarked) [Example I-09] 80%

For the compound CSCCOC(=O)C1C=CC(NC(=O)C2(CF)CC(c3cc(F)cc(F)c3)=NO2)C1 (centres unmarked) [Example I-74] , what Herbicidal action against [%] ABUTH is on record? 90%

----------
# Test system: Avena fatua
# method_notes: Post-emergence herbicidal action against AVEFA
# Format: in vivo
# condition_context: 20 g a.i./ha, visual rating about 3 weeks after treatment
readout_label: Herbicidal action against [%] AVEFA

Would you kindly share the measured Herbicidal action against [%] AVEFA for CC1(C(=O)NC2C=CC(C(=O)OCCSC(F)(F)F)C2)CC(c2cc(F)cc(F)c2)=NO1 (centres unmarked) [Example I-13] ? 90%

Could you share which Herbicidal action against [%] AVEFA value was measured for CSCCOC(=O)C1C=CC(NC(=O)C2(CO)CC(c3cc(F)cc(F)c3)=NO2)C1 (centres unmarked) [Example I-70] ? 80%

Any idea what Herbicidal action against [%] AVEFA was measured for CSCCOC(=O)C1C=CC(NC(=O)C2(C(F)(F)F)CC(c3cccc(C#N)c3)=NO2)C1 (mixture of isomers) [Example I-44] ? 80%

Need Herbicidal action against [%] AVEFA of CSCCOC(=O)C1C=CC(NC(=O)C2(C)CC(c3cccc(C#N)c3)=NO2)C1 (centres unmarked) [Example I-41] , thanks. 90%

If you can, please state the reported Herbicidal action against [%] AVEFA value of COC1(C(=O)NC2C=CC(C(=O)OCCSC)C2)CC(c2cc(F)cc(F)c2)=NO1 (centres unmarked) [Example I-20] . 90%

Given the compound CCSCCOC(=O)C1C=CC(NC(=O)C2(C)CC(c3cc(F)cc(F)c3)=NO2)C1 (centres unmarked) [Example I-02] , what is its reported Herbicidal action against [%] AVEFA? 90%

What value of Herbicidal action against [%] AVEFA has been recorded for this entry: CSCCOC(=O)C1C=CC(NC(=O)C2(CCl)CC(c3cc(F)cc(F)c3)=NO2)C1 (centres unmarked) [Example I-60] 80%

# query: Herbicidal action against [%] AVEFA of entry COC1(C(=O)NC2C=CC(C(=O)OCCSC)C2)CC(c2cc(F)cc(F)c2)=NO1 (centres unmarked) [Example I-19] 90%

----------
# System: Echinochloa crus-galli
# method_notes: Post-emergence herbicidal action against ECHCG
# Type: in vivo
# condition_context: 20 g a.i./ha, visual rating about 3 weeks after treatment
Kindly supply the reported Herbicidal action against [%] ECHCG values for the records listed here.
Field note: include the unit after the figure.

I have this compound here, CSCCOC(=O)C1C=CC(NC(=O)C2(CCl)CC(c3cc(F)cc(C#N)c3)=NO2)C1 (stereo not shown) , and I need its recorded Herbicidal action against [%] ECHCG. 80%

For C=CC1(C(=O)NC2C=CC(C(=O)OCCSC)C2)CC(c2cccc(F)c2)=NO1 (stereo not shown) , what is its reported Herbicidal action against [%] ECHCG? 90%

Which Herbicidal action against [%] ECHCG reading was recorded for the compound CSCCOC(=O)C1C=CC(NC(=O)C2(C(F)(F)F)CC(c3cc(F)cc(C#N)c3)=NO2)C1 (mixture of isomers) ? 90%

# lookup: Herbicidal action against [%] ECHCG of CSCCOC(=O)C1C=CC(NC(=O)C2(C(F)(F)F)CC(c3cc(F)cc(F)c3)=NO2)C1 (stereo not shown) 80%

Which Herbicidal action against [%] ECHCG value belongs to CCSCCOC(=O)C1C=CC(NC(=O)C2(OC)CC(c3cc(F)cc(F)c3)=NO2)C1 (stereo not shown) ? 80%

// lookup Herbicidal action against [%] ECHCG for CC1(C(=O)NC2C=CC(C(=O)OCCSc3ccccc3)C2)CC(c2cc(F)cc(F)c2)=NO1 (stereo not shown) 80%

# query: Herbicidal action against [%] ECHCG of entry COC1(C(=O)NC2C=CC(C(=O)OCCSC(C)C)C2)CC(c2cc(F)cc(F)c2)=NO1 (stereo not shown) 80%

Need Herbicidal action against [%] ECHCG, item COC1(C(=O)NC2C=CC(C(=O)OCCSC(=O)C(C)C)C2)CC(c2cc(F)cc(F)c2)=NO1 (stereo not shown) 90%

Which Herbicidal action against [%] ECHCG is listed for CC1(C(=O)NC2C=CC(C(=O)OCCS(C)(=O)=O)C2)CC(c2cc(F)cc(F)c2)=NO1 (stereo not shown) ? 80%

Name the reported Herbicidal action against [%] ECHCG value associated with the compound COC1(C(=O)NC2C=CC(C(=O)OCCSC)C2)CC(c2cc(F)cc(F)c2)=NO1 (stereo not shown) [Example I-20] 90%

Fill blank: measured Herbicidal action against [%] ECHCG of the compound C=CC1(C(=O)NC2C=CC(C(=O)OCCSC)C2)CC(c2cc(F)cc(F)c2)=NO1 (stereo not shown) is ____. 90%

Any idea what its Herbicidal action against [%] ECHCG is? The compound is CSCCOC(=O)C1=CC(NC(=O)C2(C)CC(c3cc(F)cc(F)c3)=NO2)CC1 (stereo not shown) 80%

Tell me the measured Herbicidal action against [%] ECHCG of C=CCSCCOC(=O)C1C=CC(NC(=O)C2(OC)CC(c3cc(F)cc(F)c3)=NO2)C1 (stereo not shown) , please. 80%

What Herbicidal action against [%] ECHCG value was documented for this compound, COC1(C(=O)NC2C=CC(C(=O)OCCSC(F)(F)F)C2)CC(c2cc(F)cc(F)c2)=NO1 (stereo not shown) ? 90%

Give the measured Herbicidal action against [%] ECHCG of CSCCOC(=O)C1C=CC(NC(=O)C2(C)CC(c3cc(F)cc(F)c3)=NO2)C1 (stereo not shown) . 90%

# Herbicidal action against [%] ECHCG lookup, item CC1(C(=O)NC2C=CC(C(=O)OCCSCc3ccccc3)C2)CC(c2cc(F)cc(F)c2)=NO1 (stereo not shown) 90%
